meta.source: ChEMBL document CHEMBL5579878

target: Serine/threonine-protein phosphatase 5 (Homo sapiens, UniProt P53041); experiment: Activation of His-tagged human PP5 extracted from Escherichia coli BL21 using pNPP as substrate assessed as increase in phosphatase activity incubated for 30 mins by spectrophotometric analysis
Sequence (P53041 whole entry): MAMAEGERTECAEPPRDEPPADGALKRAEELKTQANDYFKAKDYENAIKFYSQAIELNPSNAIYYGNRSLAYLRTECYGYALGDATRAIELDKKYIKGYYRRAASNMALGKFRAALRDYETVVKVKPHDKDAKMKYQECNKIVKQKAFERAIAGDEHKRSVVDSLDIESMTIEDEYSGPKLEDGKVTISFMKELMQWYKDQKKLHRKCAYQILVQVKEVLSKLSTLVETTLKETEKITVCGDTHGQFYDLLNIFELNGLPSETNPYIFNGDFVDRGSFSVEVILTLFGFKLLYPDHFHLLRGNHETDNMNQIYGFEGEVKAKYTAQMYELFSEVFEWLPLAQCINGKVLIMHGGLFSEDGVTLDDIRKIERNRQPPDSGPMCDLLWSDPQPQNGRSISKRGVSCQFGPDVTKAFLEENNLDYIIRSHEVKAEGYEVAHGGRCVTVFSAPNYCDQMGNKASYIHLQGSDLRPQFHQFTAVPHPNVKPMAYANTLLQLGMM
test.readout: pEC50
Answer as the number alone; pEC50 is minus log10 of concentration in mol/L.

Record lookup: for Serine/threonine-protein phosphatase 5 (Homo sapiens, UniProt P53041), what pEC50 belongs to N=c1oc2cc(F)cc(F)c2cc1C(N)=S ?
4.28

====

Quick list: fold change (FC) per entry.
target: Serine/threonine-protein phosphatase 5 (Homo sapiens) (UniProt P53041); assay: Activation of His-tagged human PP5 extracted from Escherichia coli BL21 using pNPP as substrate assessed as fold increase in phosphatase activity at 50 uM incubated for 30 mins by spectrophotometric analysis; conditions: filed as activator
Format: numeric value only, no unit, no commentary.

Known results for molecules:
N=c1oc2c(F)cc(F)cc2cc1C(N)=S ... 2.1
Cc1ccc2oc(=N)c(C(N)=S)cc2c1 ... 1.6

Suppose we examine the molecule N=c1oc2cc(F)ccc2cc1C(N)=S ; what fold change (FC) value has been reported?
1.7
